Source: patent US20260265246A1

# Assay Target: UniProtKB P28223
# Sequence (P28223 whole entry): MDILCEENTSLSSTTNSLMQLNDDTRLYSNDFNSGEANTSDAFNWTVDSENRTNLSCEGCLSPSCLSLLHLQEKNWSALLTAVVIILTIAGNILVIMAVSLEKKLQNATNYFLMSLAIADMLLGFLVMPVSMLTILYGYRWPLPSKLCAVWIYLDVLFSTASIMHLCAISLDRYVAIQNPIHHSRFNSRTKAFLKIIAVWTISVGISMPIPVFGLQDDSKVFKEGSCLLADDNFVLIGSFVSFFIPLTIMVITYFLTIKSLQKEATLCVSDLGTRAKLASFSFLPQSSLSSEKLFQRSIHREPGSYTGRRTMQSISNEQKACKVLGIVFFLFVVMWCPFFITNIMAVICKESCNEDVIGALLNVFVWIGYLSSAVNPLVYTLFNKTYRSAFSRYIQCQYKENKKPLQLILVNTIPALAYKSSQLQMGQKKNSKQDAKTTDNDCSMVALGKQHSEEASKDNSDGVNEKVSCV
# Assay Summary: cell-based
# Design: expressed in transfected cells; host or cells: HEK293T cells, transient co-transfection
# Assay Context: HEK-293T, BRET2 Gαq dissociation, HEK293T cells, normalized to 5-HT; read-out: 5HT2A Gq Emax (%)
Quantity Name: Emax (%)
State the answer as a number, implicitly in %.

Compound | Assay Target | Emax (%)
CCc1[nH]c2ccccc2c1C1=CCCNC1 [Example 62] | UniProtKB P28223 | 49.1

Looking up CN1CCC=C(c2n[nH]c3ccccc23)C1 [Example 46] , I found its Emax recorded as 62.6

Looking up CN1CCC=C(c2c[nH]c3ncc(F)cc23)C1 [Example 118] , I found its Emax recorded as 109

Looking up N#Cc1ccc2[nH]nc(C3=CCCNC3)c2c1 [Example 86] , I found its Emax recorded as 90.2

Looking up Fc1cccc2c(C3=CCCN(Cc4ccccc4)C3)c[nH]c12 [Example 73] , I found its Emax recorded as 81.9

Looking up COc1cccc2[nH]nc(C3=CCCNC3)c12 [Example 83] , I found its Emax recorded as 81.7

Looking up Cc1cccc2[nH]cc(C3=CCCNC3)c12 [Example 17] , I found its Emax recorded as 85.7

Looking up Cc1cccc2[nH]nc(C3=CCCNC3)c12 [Example 80] , I found its Emax recorded as 83.4

Looking up CN1CCC=C(c2c[nH]c3c(C(F)(F)F)cccc23)C1 [Example 59] , I found its Emax recorded as 81.7

Looking up COc1cccc2c(C3=CCCN(C)C3)c[nH]c12 [Example 53] , I found its Emax recorded as 77.8

Looking up COc1cccc2[nH]cc(C3=CCCN(C)C3)c12 [Example 20] , I found its Emax recorded as 91

Looking up Fc1ccnc2[nH]cc(C3=CCCNC3)c12 [Example 119] , I found its Emax recorded as 88.2

Looking up Clc1[nH]c2ccccc2c1C1=CCCNC1 [Example 64] , I found its Emax recorded as 91.8

Looking up COc1cnc2[nH]cc(C3=CCCN(C)C3)c2c1 [Example 6] , I found its Emax recorded as 65.9

Looking up Clc1ccc2[nH]cc(C3=CCCNC3)c2c1 [Example 22] , I found its Emax recorded as 102

Looking up Fc1cccc2[nH]nc(C3=CCCNC3)c12 [Example 81] , I found its Emax recorded as 92.3

Looking up N#Cc1ccc2c(C3=CCCNC3)n[nH]c2c1 [Example 79] , I found its Emax recorded as 48.6

Looking up COc1cnc2[nH]cc(C3=CCCNC3)c2c1 [Example 2] , I found its Emax recorded as 73.7

Looking up Fc1ccc2[nH]nc(C3=CCCNC3)c2c1 [Example 85] , I found its Emax recorded as 88.3

Looking up CN1CCC=C(c2c[nH]c3nccc(Cl)c23)C1 [Example 15] , I found its Emax recorded as 68.8
